targetDesc: JAK2 JH2 WT (V536-D812) [W659A, W777A, F794H solubilizing mutations] (Homo sapiens, UniProt O60674, F794H/W659A/W777A)
Construct: **JAK2 JH2 WT (V536-D812) [W659A, W777A, F794H solubilizing mutations]; C-thrombin-avi-His6; thrombin cleavage site (C); His6 (C); purchased Biortus
Sequence (O60674 536-812 W659A/W777A/F794H): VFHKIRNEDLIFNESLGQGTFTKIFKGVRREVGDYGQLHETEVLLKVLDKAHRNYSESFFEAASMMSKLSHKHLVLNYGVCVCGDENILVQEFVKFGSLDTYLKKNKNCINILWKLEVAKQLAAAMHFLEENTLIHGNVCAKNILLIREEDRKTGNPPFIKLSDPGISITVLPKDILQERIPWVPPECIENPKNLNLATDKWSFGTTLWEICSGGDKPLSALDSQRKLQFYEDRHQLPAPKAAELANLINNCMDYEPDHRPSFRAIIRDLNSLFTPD
testDescription: Surface Plasmon Resonance (SPR) binding assay, JAK2 JH2 domain
For each of the compounds below, state its Kd.

For this compound ( CNC(=O)c1nnc(NC(=O)C2CC2)cc1Nc1cccc(-c2ccc(C(=O)N(C)C[C@H]3CCCC3(F)F)nc2)c1OC (single isomer, unassigned) ), measured Kd is 10 to 50 nM

For this compound ( CNC(=O)c1nnc(NC(=O)C2CC2)cc1Nc1cccc(-c2cnn(C3CN(Cc4cccc(C(=O)N5CCCC5)n4)C3)c2)c1OC ), measured Kd is 0.01 to 10 nM

For this compound ( CNC(=O)c1nnc(NC(=O)C2CC2)cc1Nc1cccc(-c2cnn(C3CN(Cc4cccc(C5(C#N)CCC5)n4)C3)c2)c1OC ), measured Kd is 0.01 to 10 nM

For this compound ( CNC(=O)c1nnc(NC(=O)C2CC2)cc1Nc1cccc(-c2cnn(C3CN(Cc4cccc(C(=O)O)n4)C3)c2)c1OC ), measured Kd is 0.01 to 10 nM

For this compound ( CNC(=O)c1nnc(NC(=O)C2CC2)cc1Nc1cccc(-c2cnn(C3CN(Cc4cccn5ccnc45)C3)c2)c1OC ), measured Kd is 0.01 to 10 nM

For this compound ( CNC(=O)c1nnc(NC(=O)C2CC2)cc1Nc1cccc(-c2cnn(C3CN([C@H](C)c4cccc(C#N)n4)C3)c2)c1OC (single isomer, unassigned) ), measured Kd is 0.01 to 10 nM

For this compound ( CNC(=O)c1nnc(NC(=O)C2CC2)cc1Nc1cccc(-c2ccc(C3CN(Cc4cccc(C#N)n4)C3)nc2)c1OC ), measured Kd is 0.01 to 10 nM

For this compound ( CNC(=O)c1nnc(NC(=O)C2CC2)cc1Nc1cccc(-c2cncc(C3CN(Cc4ccccn4)C3)c2)c1OC ), measured Kd is 10 to 50 nM

For this compound ( CNC(=O)c1nnc(NC(=O)C2CC2)cc1Nc1cccc(-c2cn(C3CN(C(C)C)C3)nc2C(C)(C)O)c1OC ), measured Kd is 50 to 500 nM

For this compound ( CNC(=O)c1nnc(NC(=O)C2CC2)cc1Nc1cccc(-c2ccc(C(=O)N(C)C[C@H]3CCCC3(F)F)cc2)c1OC (single isomer, unassigned) ), measured Kd is 10 to 50 nM

For this compound ( CNC(=O)c1nnc(NC(=O)C2CC2)cc1Nc1cccc(-c2cnn(C3CN(Cc4cccc5c(F)cnn45)C3)c2)c1OC ), measured Kd is 0.01 to 10 nM

---

Tested on: TF1 JAK2 V617F STAT5 reporter
testDescription: Cellular TF1 STAT5 assay (luciferase reporter), JAK2 V617F
Format: cell-based
condition: TF1 JAK2 V617F, read-out: Cell PD TF1 V617F STAT5 (IC50)
Description: Selected compounds of the present disclosure were tested in a Cellular TF1 STAT3 or STAT5 assay, to measure the degree of JAK2-mediated STAT3 or STAT5 phosphorylation, respectively. TF1 cells (immortalized erythroleukemia line) expressing either wildtype or V617F mutant JAK2 with a luciferase reporter were used. […] Cell plating: Cells were counted using Vi-Cell XR, then cells were spun down and resuspended in growth media to 200,000 cells/ml. […]
pIC50: −log10 of the molar value.
readoutType: pIC50

For this compound ( CNC(=O)c1nnc(NC(=O)C2CC2)cc1Nc1cccc(-c2cnn(C3CN(Cc4cc(C)ccn4)C3)c2)c1OC [Compound 111] ), measured pIC50 is 6.30 to 7.30

For this compound ( CNC(=O)c1nnc(NC(=O)C2CC2)cc1Nc1ccc(C)c(-c2cnn(C3CN(Cc4cc(C#N)ccn4)C3)c2)c1OC [Compound 68] ), measured pIC50 is 5.30 to 6.30

For this compound ( CNC(=O)c1nnc(NC(=O)C2CC2)cc1Nc1cccc(-c2cnc(C(=O)N(CCF)Cc3cccn(C)c3=O)c(F)c2)c1OC [Compound 22] ), measured pIC50 is 5.30 to 6.30

For this compound ( CNC(=O)c1nnc(NC(=O)C2CC2)cc1Nc1cccc(-c2ccc(C(=O)N(C)Cc3ccnn3C)nc2)c1OC [Compound 40] ), measured pIC50 is 5.30 to 6.30

For this compound ( [2H]C([2H])([2H])NC(=O)c1nnc(NC(=O)C2CC2)cc1Nc1cccc(-c2ccc(C(=O)N(C)Cc3cc(C#N)ccn3)nc2)c1OC [Compound 61] ), measured pIC50 is 6.30 to 7.30

For this compound ( CNC(=O)c1nnc(NC(=O)C2CC2)cc1Nc1cccc(-c2cnn(C3CN(Cc4ncsc4C)C3)c2)c1OC [Compound 125] ), measured pIC50 is 5.30 to 6.30

For this compound ( CNC(=O)c1nnc(NC(=O)C2CC2)cc1Nc1cccc(-c2ccc(C(=O)N(C)Cc3cnn(C)c3C)nc2)c1OC [Compound 166] ), measured pIC50 is 5.30 to 6.30

For this compound ( CNC(=O)c1nnc(NC(=O)C2CC2)cc1Nc1cccc(-c2ccc(C3CN(Cc4ccccn4)C3)nc2)c1OC [Compound 182] ), measured pIC50 is 5.30 to 6.30

For this compound ( CNC(=O)c1nnc(NC(=O)C2CC2)cc1Nc1cccc(-c2ccc(C(=O)N(C)Cc3csc(C)n3)nc2)c1OC [Compound 174] ), measured pIC50 is 6.30 to 7.30

For this compound ( [2H]C([2H])([2H])NC(=O)c1nnc(NC(=O)C2CC2)cc1Nc1cccc(-c2ccc(C(=O)N(C)Cc3ccn(C)n3)nc2)c1OC [Compound 79] ), measured pIC50 is 5.30 to 6.30

For this compound ( CNC(=O)c1nnc(NC(=O)C2CC2)cc1Nc1cccc(-c2cnn(C3CN(Cc4ccccc4F)C3)c2)c1OC [Compound 90] ), measured pIC50 is 5.30 to 6.30

For this compound ( CNC(=O)c1nnc(NC(=O)C2CC2)cc1Nc1cccc(-c2ccc(C(=O)N(C)Cc3cccc(OC(F)F)c3)nc2)c1OC [Compound 80] ), measured pIC50 is 5.30 to 6.30

For this compound ( CNC(=O)c1nnc(NC(=O)C2CC2)cc1Nc1cccc(-c2cnc(C(=O)N(C)Cc3ccccn3)c(F)c2)c1OC [Compound 27] ), measured pIC50 is 6.30 to 7.30

For this compound ( CNC(=O)c1nnc(NC(=O)C2CC2)cc1Nc1cccc(-c2ccc(C(=O)N(Cc3cccn(C)c3=O)CC(F)F)nc2)c1OC [Compound 16] ), measured pIC50 is 4.00 to 5.30

For this compound ( CNC(=O)c1nnc(NC(=O)C2CC2)cc1Nc1ccc(C)c(-c2cnc(C(=O)N(C)Cc3ccccn3)c(F)c2)c1OC [Compound 43] ), measured pIC50 is 5.30 to 6.30

For this compound ( CNC(=O)c1nnc(NC(=O)C2CC2)cc1Nc1cccc(-c2cnn(C3CN(Cc4cccc(Cl)n4)C3)c2)c1OC [Compound 143] ), measured pIC50 is 6.30 to 7.30

For this compound ( CNC(=O)c1nnc(NC(=O)C2CC2)cc1Nc1cccc(-c2ccc(C(=O)N(C)Cc3cc(C#N)ccn3)cc2)c1OC [Compound 11] ), measured pIC50 is 5.30 to 6.30

For this compound ( CNC(=O)c1nnc(NC(=O)C2CC2)cc1Nc1cccc(-c2ccc(C(=O)N3CCc4cccnc4C3)nc2)c1OC [Compound 108] ), measured pIC50 is 4.00 to 5.30

For this compound ( CNC(=O)c1nnc(NC(=O)C2CC2)cc1Nc1cccc(-c2cnn(C3CN(Cc4cccc(F)c4F)C3)c2)c1OC [Compound 129] ), measured pIC50 is 5.30 to 6.30

For this compound ( CNC(=O)c1nnc(NC(=O)C2CC2)cc1Nc1cccc(-c2ccc(C(=O)N(C)Cc3cncs3)nc2)c1OC [Compound 60] ), measured pIC50 is 4.00 to 5.30

For this compound ( CNC(=O)c1nnc(NC(=O)C2CC2)cc1Nc1cccc(-c2cnn(C3CN(Cc4nc(C)cs4)C3)c2)c1OC [Compound 141] ), measured pIC50 is 5.30 to 6.30

For this compound ( CNC(=O)c1nnc(NC(=O)C2CC2)cc1Nc1cccc(-c2ccc(C(=O)N(C)Cc3cc(C#N)ccn3)c(C(F)(F)F)c2)c1OC [Compound 170] ), measured pIC50 is 5.30 to 6.30

For this compound ( CNC(=O)c1nnc(NC(=O)C2CC2)cc1Nc1cccc(-c2ccc(C(=O)N(C)Cc3cc(C#N)ccn3)nc2)c1OC [Compound 18] ), measured pIC50 is 6.30 to 7.30

For this compound ( CNC(=O)c1nnc(NC(=O)C2CC2)cc1Nc1cccc(-c2ccc(C(=O)N(C)Cc3cccc(C)n3)nc2)c1OC [Compound 167] ), measured pIC50 is 6.30 to 7.30

For this compound ( CNC(=O)c1nnc(NC(=O)C2CC2)cc1Nc1ccc(C)c(-c2ccc(C(=O)N(C)Cc3nccs3)nc2)c1OC [Compound 180] ), measured pIC50 is 5.30 to 6.30

For this compound ( CNC(=O)c1nnc(NC(=O)C2CC2)cc1Nc1cccc(-c2cnn(C3CN(Cc4cccc(F)n4)C3)c2)c1OC [Compound 142] ), measured pIC50 is 6.30 to 7.30
